Data provenance: the nanobody polyreactivity screen of Harvey et al. (2022)

# ASSAY DETAILS: yeast display, Sf9 membrane polyspecificity reagent, FACS + sequencing; frameworks hold sequencing errors
PARAMETER: polyreactivity (PSR sort gate)

The following sequences have reported results that may help.
SEQUENCE STRING: QFQLEESAGGLVQAGGSLRLSCAASGRTFADYAMGWYRPAPGKETELVAAISSGGSTYFAVSVKGRFTISRDNAKNTVYLQMNSLKPEDTAVYYCTARWGYRLGYWGQGTQVTVSS
polyreactivity (PSR sort gate): high polyreactivity
--
SEQUENCE STRING: QVQLVESGGGLVQAGGSLRLSCAASGRTFFDYAMGWYRQAPGKERELVATIRGGGSTNYADSVKGRFTISRDNAKNTVYLQMNSLKPEDTAVYYCAVRRRWYFPQYRSGRSLDYWGQGTQVTVSS
polyreactivity (PSR sort gate): high polyreactivity
--
SEQUENCE STRING: QVQLVESGGGLVQAGGSLRLSCAASGRTYSNAMGWYRQAPGKERELVAAITWSGGRTYYADSVKGRFTISRDNAKNTVYLQMNSLKPEDTAVYYCAADSIWWPLWFDYWGQGTQVTVSS
polyreactivity (PSR sort gate): high polyreactivity
--
SEQUENCE STRING: QVQLVESGRGLVQAGGSLRLSCAASASTFTLNTMGWYREAAGKERELVAAITASGGRTFYADSVKGPFTISRDNANNTVYLQMTSLKPEDTAFYYCAKRPYGWVSRYDYWGQVTQVTVSS
polyreactivity (PSR sort gate): low polyreactivity
--
SEQUENCE STRING: QVQLVDSGGGLVQAGGSLRLSCAASGFTFYANAMGWYRQAPGTERELVAALSRGVSPTYADSVKGRFTISRDNGKNTVYLEMNSLKPEDTAVYYCASDGNVIAQGYDYWGQGTQVTVSS
polyreactivity (PSR sort gate): low polyreactivity
--
SEQUENCE STRING: QVKLVESGGRLVQAGGILRLSSPASGFIFRGYARGWYRQAPGKERELVAAINSGGSTNYADSVKGRFTISRDNAKNTVYLQMIRLKPEETAVYYCAARVKTSYRYLRTYNYWGLGTQVTVSS
polyreactivity (PSR sort gate): high polyreactivity
--
SEQUENCE STRING: QVLLVESGGGLVQAGGSLRLSCAASGYNFFTKAMGWYRQAQGKERELVAAISKSGGRTYYADSVKGRFTISRDNAKNTVYLQMNSLTPEDTAVYYCAARSETSYYPSRYDYWGQGTQVTVSS
polyreactivity (PSR sort gate): high polyreactivity
--
SEQUENCE STRING: QVQLVESGGGLVQAGCSLRLSCAASGSIFSTYAMGWYRQAPGKERELVAAITSDGTYADSVKGRFTISRDNARNTVYLQMNSLKPEDTAVYYWAAYYPYTRHGDYWGQGTQVTVSS
polyreactivity (PSR sort gate): low polyreactivity

Task item: Given the sequence QVHLVESAVRLVQAGGSLRLSCAAPGFTFFSNARGWYRQAHGKERELFASITNDGSTYADSVKGRFTISRDNAMNTVYLQMTSLKPEDTAVYYCAARVPQWRYSRRTRERFDFWGQGTQVTVSS , write its reported polyreactivity (PSR sort gate).
Reply: low polyreactivity

Task item: Given the sequence QVQLVESGGGLVQAGGSLRLSCAASGFTFRRYTMGWYRQAPGKERELVAAISRSGGSTFYADSVKGRFTISRDYAKNTVYLQMNSLKPEDTAVYYCNAGRTYTALNGDYWGQGTQVTVSS , write its reported polyreactivity (PSR sort gate).
Reply: high polyreactivity

Task item: Given the sequence QVQLVESGGGLVQAGGSLRLSCAASGSTFYYYVMGWYRQAPGKERELVAAISSGGHTNYADSVKGRFTISRDNAKNTVYLQMNSLKPEDTAVYYCAAKPWRGTLLRYGYWGQGTQVTVSS , write its reported polyreactivity (PSR sort gate).
Reply: high polyreactivity

Task item: Given the sequence KLQLVDSGGGLVQAGGSLRLSCAASGSTIRYYAMGWYRQAPGKERELVAAITISGGGTYADSVKGRFTISRDNAKNTVYLEMNSLKPEDTAVYYCAATYYGFLYRSIGDYWGQGTQVTVSS , write its reported polyreactivity (PSR sort gate).
Reply: low polyreactivity

Task item: Given the sequence QVQLVESGGGLVQAGGSLRLSCAASGSIFGRNAMGWYRQAPGKEREFVAAISQRGGRTYYADSVKGRFTISRDNAKNTVYLQMNSLKPEDTAVYYCAATYTRVPNRFYYWGQGTQVTVSS , write its reported polyreactivity (PSR sort gate).
Reply: high polyreactivity

Task item: Given the sequence QVQLVESGGGLVQAGGSLRLSCAASGTIFAANAMGWYRQAPGKERELVAAISSGDGTYYADSVKGRFTISRDNAKNTVYLQMNSLKPEDTAVYYCAARFTYYSGYYAGSYGYWGQGTQVTVSS , write its reported polyreactivity (PSR sort gate).
Reply: high polyreactivity

* * *

# ASSAY DETAILS: yeast display, Sf9 membrane polyspecificity reagent, FACS + sequencing; frameworks hold sequencing errors
PARAMETER: polyreactivity (PSR sort gate)

The following sequences have reported results that may help.
SEQUENCE STRING: QVQLVESGGGLVQAGASLRLSCAASGRTFRYYDMGWSRQEPGKEREFVAAITWRGGSTYFADSVKGRFTISRDNAKNTVFLQMNSLKPEDTAVYYCATDSLRLYGGKRDLYFWGQGTQVTVSS
polyreactivity (PSR sort gate): low polyreactivity

SEQUENCE STRING: QVQLVESGGGLVQAGGSLRLSCAASGIIFISNAMGWSRQAPGTERELVADITSGGGSTYYADSVKGRFTISRDNAKNTVDLQMNSLKPDDTAVYYGAKRATGAYVFFFDSWGQGTQVTVSS
polyreactivity (PSR sort gate): low polyreactivity

SEQUENCE STRING: QVQLVESCGGLVQAGASLRLSCAASGRTFSENAMGWYRQARGKEREFVAGNSFSGDGRTYYADSVKGRFTISRDNAKNTVYLQMNSLKPEDTAVYYCAAPHRSRTHELDYWGQGTQVTVSS
polyreactivity (PSR sort gate): low polyreactivity

SEQUENCE STRING: QLQLEDSGGGLVQAGGILRLSFAASGFTFFYNAMRWYSQAPATEREFDAAISGRGGTTYYADSVKGRFTISRDNAKNTVYLQMNSVKPEDTAVYYCAARSVSTLRYTSGKLRYDYWGQGTQVTVSS
polyreactivity (PSR sort gate): high polyreactivity

SEQUENCE STRING: QVQLVESGGGLVQAGGSLRLSCAASGRIFGLNGMGWSRQAPGKERELVARISSVGSTYSADSVKGRFTISRDNAKNTVDLQKNSLTPEDTSVYYCNRRRSRYLPTPDRIVEYDYWGQGTQVTVSS
polyreactivity (PSR sort gate): low polyreactivity

SEQUENCE STRING: QVQLVESGGGLVQAGGSLRLSCAASGGIYYSNAMGWYRQAPGKERELVAAISRDGTITYYADSEKGRFTSSRDNAKNTVYLQMNSLKPEDTAVYSCASDPSIPSWYSIYVYWGQGTQVTVSS
polyreactivity (PSR sort gate): high polyreactivity

Task item: Given the sequence QVQLVESGGGLVQAGGSLRLSCAASGSIFRYNAMGWYRQAPGKERELVAAISTSGGSTYYADSVKGRFTISRDNAKNTVYLQMNSLKPEDTAVYYCNKLRNSDSRGIVWYGYWGQGTQVTVSS , write its reported polyreactivity (PSR sort gate).
Reply: high polyreactivity

Task item: Given the sequence QVQLVESGGGLVQAGGSLRLSCAASGSTFINYAMGWYRQAPGKERELVAAISRSGGTTYYADSVKGRFTISRDNAKNTVYLQMNSLKPEDTAVYYCNATLGSYARTRYYYWGQGTQVTVSS , write its reported polyreactivity (PSR sort gate).
Reply: high polyreactivity

Task item: Given the sequence QVQLVESGGGLVQAGGSLRLSCAASGSTFKVYAMGWYRQAPGKERELVAAISRSGGRTYYADSVKGRFTISRDNAKNTVYLQMNSLKPEDTAVYYCNRDYTFSQGHYSGSYGYWGQGTQVTVSS , write its reported polyreactivity (PSR sort gate).
Reply: high polyreactivity

Task item: Given the sequence QVQLVETRGGLVQAGGSLRLSCAASGSIFRTNVMGRYRQAPGKERELVAAISRRGGSTYYADSVKGRFTISRDNAKNTVYLQMITLKPEDTAVYYCAASSSAYRDDYWGQGTQVTVSS , write its reported polyreactivity (PSR sort gate).
Reply: high polyreactivity

Task item: Given the sequence QDQLVESGGGLVQAGGSLRLSCAASGIIYLTYAMGRYRQEPGKERELVATITSGGRTIYADSVKGRFTISLDNAKNTVYLQMNRLKPVDTAVYYCNALRYYHYDYWGQGTQVTVSS , write its reported polyreactivity (PSR sort gate).
Reply: high polyreactivity

Task item: Given the sequence QVQLVDSGGGLVQAGGSLRLSCAASGRTFVSYAMGWYRQAPGKERELVAAISRSGGRTYYADSVKGRFTISRDNAMNSVYLQMNCLKPEDTAVYYCATKQYGTLARYDYWGQGSQVTVSS , write its reported polyreactivity (PSR sort gate).
Reply: high polyreactivity

Task item: Given the sequence QVQLVESGGGLVQAGGSLRLSCAASGSIFFVNDMGWYRQAPGKERELVAAITRDGGTNYADSVKGRFTISRDNAKNTVYLQMNSLKPEDTAVYYCAKESGSVLSLYDYWGQGTQVTVSS , write its reported polyreactivity (PSR sort gate).
Reply: low polyreactivity
